Values were extracted from patent US10597388B2.

- Tested on: bluegrass (annual bluegrass, Poa annua)
- procedure_text: Test D controlled growth environment herbicide test, pre- and postemergence
- Type: in vivo
- condition_notes: Postemergence, 250 g ai/ha; scale 0 to 100 (0 no effect, 100 complete control)
- From the text: […]
reported_property: Plant response rating, Bluegrass
Answers are plain numbers.

// known answers, use as guide
CCOC(=O)Oc1c(C)nn(C)c(=O)c1-c1c(C)sc2c(C)cc(C)cc12 [Compound 83]; 25
CCOC(=O)Oc1c(C)nn(C)c(=O)c1-c1c(C)sc2ccc(C)cc12 [Compound 82]; 35
Cc1ccc2ccc(C)c(-c3c(O)c(C)nn(C)c3=O)c2c1 [Compound 60]; 60

Record Plant response rating, Bluegrass for all entries; do not skip any.
1. CCOC(=O)Oc1c(C)nn(C)c(=O)c1-c1c(C)ccc2ccccc12 [Compound 73]
2. COc1nn(C)c(=O)c(-c2c(C)ccc3ccccc23)c1O [Compound 54]
3. Cc1cc(C)c2sc(C)c(-c3c(OC(=O)OC(C)C)c(C)nn(C)c3=O)c2c1 [Compound 67]
4. CC(=O)Oc1c(C)nn(C)c(=O)c1-c1ccc(F)c2ccccc12 [Compound 90]
5. Cc1ccc(-c2c(O)c(Br)nn(C)c2=O)c2ccccc12 [Compound 52]

65
35
30
30
30

====

- Tested on: ragweed (common ragweed, Ambrosia elatior)
- procedure_text: Test C greenhouse herbicide test, pre- and postemergence
- Format: in vivo
- condition_notes: Preemergence, 31 g ai/ha; scale 0 to 100, 0 is no effect, 100 is complete control
reported_property: Plant response rating, Ragweed
Give bare numbers.

Examples with their reported Plant response rating, Ragweed follow.
CCOC(=O)Oc1c(C)nn(C)c(=O)c1-c1c(C)sc2ccc(C)cc12; 85
COc1nn(C)c(=O)c(-c2c(C)ccc3ccccc23)c1O; 90
C#CCOC(=O)Oc1c(C)nn(C)c(=O)c1-c1c(C)sc2ccc(C)cc12; 90
CCC(=O)Oc1c(C)nn(C)c(=O)c1-c1c(C)sc2ccc(C)cc12; 90

Please examine the following record next.
get_value(item= CSCC(=O)Oc1c(C)nn(C)c(=O)c1-c1cccc2ccccc12 , readout=Plant response rating, Ragweed) returns 65

====

- Test system: chickweed (common chickweed, Stellaria media)
- procedure_text: Test D controlled growth environment herbicide test, pre- and postemergence
- Assay type: in vivo
- condition_notes: Postemergence, 125 g ai/ha; visual rating on scale 0 (no effect) to 100 (complete control), 14 to 21 d
reported_property: Plant response rating, Chickweed
Give bare numbers.

In the examples that follow, each entry is paired with its recorded Plant response rating, Chickweed.
Cc1cc(C)c2sc(C)c(-c3c(OC(=O)OC(C)C)c(C)nn(C)c3=O)c2c1 [Compound 67]; 100
C#CCOC(=O)Oc1c(C)nn(C)c(=O)c1-c1c(C)sc2ccc(C)cc12 [Compound 87]; 100

Now let's try a different one.
So for CCOC(=O)Oc1c(C)nn(C)c(=O)c1-c1c(C)sc2ccc(C)cc12 [Compound 82] , the logged Plant response rating, Chickweed turned out to be 95

====

- Tested on: barnyardgrass (Echinochloa crus-galli)
- procedure_text: Test C greenhouse herbicide test, pre- and postemergence
- Assay type: in vivo
- condition_notes: Preemergence, 125 g ai/ha; scale 0 to 100, 0 is no effect, 100 is complete control
reported_property: Plant response rating, Barnyardgrass

CCOC(=O)Oc1c(C)nn(C)c(=O)c1-c1c(CC)ccc2ccccc12; 70
COc1nn(C)c(=O)c(-c2c(C)ccc3ccccc23)c1O; 65
Cc1nn(C)c(=O)c(-c2c(C)sc3ccc(Cl)cc23)c1O; 40

Please look at the following compound next.
The value of Plant response rating, Barnyardgrass recorded for Cc1ccc2ccccc2c1-c1c(O)c(Cl)nn(C)c1=O when tested on barnyardgrass (Echinochloa crus-galli) reads 90
